// data source = patent US9290459B1

system: Caco-2 cells; assay: Drug transport across human Caco-2 cells; assay type: in vitro ADME; conditions: Caco-2 monolayers, apical-to-basal, pH 7.2, 37° C.
Response field label: string, one of y (PEAB strictly below 10 ×10⁻⁶ cm/s) or n.

As a guide, the following entries are already answered.
N#Cc1ccc(C2C3=C(CCC3=O)N(c3cccc(C(F)(F)F)c3)C(=O)N2C(=O)NC2(CO)CC2)cc1 (stereo not shown) [Example 41.5]	y
CC(C)(O)CCNC(=O)N1C(=O)N(c2cccc(C(F)(F)F)c2)C2=C(C(=O)CC2)C1c1ccc(C#N)cc1 (stereo not shown) [Example 41.17]	n
N#Cc1ccc(C2C3=C(CCC3=O)N(c3cccc(C(F)(F)F)c3)C(=O)N2C(=O)NCCCO)cc1 (stereo not shown) [Example 7.3]	y
CN1C(=O)N(c2cccc(C(F)(F)F)c2)C2=C(C(=O)CC2)C1c1ccc(C#N)cc1[S+](C)[O-] (single isomer, unassigned) [Example 30B]	n
N#Cc1ccc(C2C3=C(CCC3=O)N(c3cccc(C(F)(F)F)c3)C(=O)N2C(=O)NC2CCOCC2)cc1 (stereo not shown) [Example 41.16]	n

Criterion: PEAB strictly below 10 ×10⁻⁶ cm/s. Is it met by CN1C(=O)N(c2cccc(C(F)(F)F)c2)C2=C(C(=O)CC2)C1c1ccc(C#N)cc1[S+](C)[O-] (single isomer, unassigned) [Example 30A] ?
y

API: query returns whether the compound falls strictly under 10 ×10⁻⁶ cm/s in PEAB. Query: C[C@H](CO)NC(=O)N1C(=O)N(c2cccc(C(F)(F)F)c2)C2=C(C(=O)CC2)C1c1ccc(C#N)cc1 (stereo partly shown) [Example 41.4]
y

* * *

assay: Drug transport across human Caco-2 cells; type: in vitro ADME; conditions: human, Caco-2, pH 7.2, Caco-2 monolayers, apical-to-basal, pH 7.2, 37° C.; read-out: PEAB
Under this convention, class 1 denotes Papp A→B at 10 µM strictly below 8 ×10⁻⁶ cm/s and class 0 denotes Papp A→B at 10 µM at or above 8 ×10⁻⁶ cm/s.

CS(=O)(=O)c1cc(C#N)ccc1[C@H]1NC(=O)N(c2cccc(C(F)(F)F)c2)C2=C1C(=O)CC2 [Example 10A]	class 1
CN1C(=O)N(c2cccc(C(F)(F)F)c2)C2=C(C(=O)CC2)[C@H]1c1ccc(C#N)cc1	class 0
CC(C)(O)CNC(=O)N1C(=O)N(c2cccc(C(F)F)c2)C2=C(C(=O)CC2)C1c1ccc(C#N)cc1 (stereo not shown)	class 1

Lab log: compare recorded Papp A→B at 10 µM with 8 ×10⁻⁶ cm/s; is it strictly lower for CN1C(=O)N(c2cccc(C(F)(F)F)c2)C2=C(C(=O)CC2)C1c1ccc(C#N)cn1 (stereo not shown) ?
class 0

Please check: Papp A→B at 10 µM for CNC(=O)N1C(=O)N(c2cccc(C(F)(F)F)c2)C2=C(C(=O)CC2)C1c1ccc(C#N)cc1OC (stereo not shown) , strictly under 8 ×10⁻⁶ cm/s or not?
class 0

Strictly below 8 ×10⁻⁶ cm/s in Papp A→B at 10 µM? CNC(=O)N1C(=O)N(c2cccc(C(F)(F)F)c2)C2=C(C(=O)CC2)[C@H]1c1ccc(C#N)cc1F [Example 49A]
class 0

Answer whether the compound N#Cc1ccc(C2C3=C(CCC3=O)N(c3cccc(C(F)(F)F)c3)C(=O)N2C(=O)N[C@@H]2CCC[C@H]2O)cc1 (stereo partly shown) has Papp A→B at 10 µM strictly less than 8 ×10⁻⁶ cm/s
class 0

is_below(Papp A→B at 10 µM, 8 ×10⁻⁶ cm/s) for CNC(=O)N1C(=O)N(c2cccc(C(F)F)c2)C2=C(C(=O)CC2)C1c1ccc(C#N)cc1 (stereo not shown) ?
class 0

Check if Papp A→B at 10 µM falls below 8 ×10⁻⁶ cm/s for CCNC(=O)N1C(=O)N(c2cccc(C(F)(F)F)c2)C2=C(C(=O)CC2)[C@H]1c1ccc(C#N)cc1S(C)(=O)=O .
class 0

Is 8 ×10⁻⁶ cm/s strictly greater than the compound's reported Papp A→B at 10 µM? compound: CNC(=O)N1C(=O)N(c2cccc(C(F)(F)F)c2)C2=C(C(=O)CC2)C1c1ccc(C#N)cn1 (stereo not shown)
class 0

Does the reported Papp A→B at 10 µM of the following compound sit strictly below 8 ×10⁻⁶ cm/s? CS(=O)(=O)c1cc(C#N)ccc1[C@@H]1C2=C(CCC2=O)N(c2cccc(C(F)(F)F)c2)C(=O)N1C(=O)NC1CC1
class 1

Bench note: check whether N#Cc1ccc([C@@H]2C3=C(CCC3=O)N(c3cccc(C(F)(F)F)c3)C(=O)N2C(=O)NCCO)cc1 shows Papp A→B at 10 µM below 8 ×10⁻⁶ cm/s
class 1
